Numbers sourced from patent US11111240B2.

- STUDY SYSTEM: IDH1 (R132H) (Homo sapiens (Human), UniProt O75874, R132H)
- Sequence (O75874 whole entry R132H): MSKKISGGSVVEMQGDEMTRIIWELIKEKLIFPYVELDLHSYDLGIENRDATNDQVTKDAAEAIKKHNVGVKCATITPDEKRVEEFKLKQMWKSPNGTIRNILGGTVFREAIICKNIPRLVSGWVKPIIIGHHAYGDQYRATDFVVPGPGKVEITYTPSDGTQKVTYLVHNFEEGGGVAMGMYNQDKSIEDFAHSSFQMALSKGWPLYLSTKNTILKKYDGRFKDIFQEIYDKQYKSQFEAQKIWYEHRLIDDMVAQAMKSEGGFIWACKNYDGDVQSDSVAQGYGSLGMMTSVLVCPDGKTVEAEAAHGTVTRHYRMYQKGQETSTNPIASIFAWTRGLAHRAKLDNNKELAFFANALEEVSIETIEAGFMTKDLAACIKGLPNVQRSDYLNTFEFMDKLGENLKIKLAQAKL
- PROCEDURE SUMMARY: Enzyme assay, IDH1m inhibition (NADPH decrease, diaphorase/resazurin)
- PARTICULARS: 40 nM enzyme, 16 h pre-incubation at 23° C.
pIC50: −log10 of the molar value.
EXPERIMENTAL ENDPOINT: pIC50

N#Cc1ccnc(N2[C@H](C(=O)N(c3ccc(F)c(F)c3)[C@@H](C(=O)NC3CC(F)(F)C3)c3ccccc3Cl)CCS2(=O)=O)c1: > 6.00
N#Cc1ccnc(N2[C@H](C(=O)N(c3cc(F)cc(F)c3)[C@H](C(=O)NC3CC(F)(F)C3)c3ccccc3Cl)CCS2(=O)=O)c1: > 7.70

The record that follows has no pIC50 shown yet.
Task item: // query pIC50 value for entry N#Cc1cccc(CN2[C@H](C(=O)N(c3cccc(F)c3)C(C(=O)NC3CCCCC3)c3ccccc3Cl)CCS2(=O)=O)c1 (stereo partly drawn)
Reply: > 5.00
